Property: melting point; scope: individual compounds
Measured Metric: melting point

{"Compound": "O=[N+]([O-])c1ccc(-c2cc(NC(c3ccc([N+](=O)[O-])cc3)P(=O)(Oc3ccccc3)Oc3ccccc3)n(-c3ccccc3)n2)cc1 (centres unmarked)", "Measured Metric": "melting point", "Measured Result": "167 to 168 °C"}
{"Compound": "CCOP(=O)(OCC)C(Nc1cc(-c2ccccc2)nn1-c1ccc([N+](=O)[O-])cc1[N+](=O)[O-])c1ccc(N(C)C)cc1 (centres unmarked)", "Measured Metric": "melting point", "Measured Result": "244 to 246 °C"}
{"Compound": "CCOP(=O)(OCC)C(Nc1cc(-c2ccc([N+](=O)[O-])cc2)nn1-c1ccccc1)c1ccc(Cl)cc1 (centres unmarked)", "Measured Metric": "melting point", "Measured Result": "298 to 300 °C"}
{"Compound": "CCOP(=O)(OCC)C(Nc1cc(-c2ccc([N+](=O)[O-])cc2)nn1-c1ccccc1)c1cccc(Cl)c1 (centres unmarked)", "Measured Metric": "melting point", "Measured Result": "150 to 152 °C"}
{"Compound": "CCOP(=O)(OCC)C(Nc1cc(-c2ccc([N+](=O)[O-])cc2)nn1-c1ccccc1)c1cccc(O)c1 (centres unmarked)", "Measured Metric": "melting point", "Measured Result": "252 to 254 °C"}
{"Compound": "CCOP(=O)(OCC)C(Nc1cc(-c2ccc([N+](=O)[O-])cc2)nn1-c1ccccc1)c1ccc([N+](=O)[O-])cc1 (centres unmarked)", "Measured Metric": "melting point", "Measured Result": "234 to 235 °C"}
{"Compound": "CN(C)c1ccc(C(Nc2cc(-c3ccccc3)nn2-c2ccc([N+](=O)[O-])cc2[N+](=O)[O-])P(=O)(Oc2ccccc2)Oc2ccccc2)cc1 (centres unmarked)", "Measured Metric": "melting point", "Measured Result": "212 to 214 °C"}
{"Compound": "O=[N+]([O-])c1ccc(-c2cc(NC(c3cccc(O)c3)P(=O)(Oc3ccccc3)Oc3ccccc3)n(-c3ccccc3)n2)cc1 (centres unmarked)", "Measured Metric": "melting point", "Measured Result": "266 to 268 °C"}

* * *

Property: IC50; scope: individual compounds
tested on: Colorectal carcinoma Colon cancer (HCT-116); experiment: cells; type: cell-based, human; settings: Homo sapiens, HCT-116, read-out: IC50 against colon carcinoma cells (HCT-116)

{"Compound": "O=[N+]([O-])c1cccc(C(Nc2cc(-c3ccccc3)nn2-c2ccc([N+](=O)[O-])cc2[N+](=O)[O-])P(=O)(Oc2ccccc2)Oc2ccccc2)c1 (stereo not shown)", "IC50": "51.3 µM"}
{"Compound": "CN(C)c1ccc(C(Nc2cc(-c3ccccc3)nn2-c2ccc([N+](=O)[O-])cc2[N+](=O)[O-])P(=O)(Oc2ccccc2)Oc2ccccc2)cc1 (stereo not shown)", "IC50": "26.1 µM"}
{"Compound": "O=[N+]([O-])c1ccc(-c2cc(NC(c3cccc(O)c3)P(=O)(Oc3ccccc3)Oc3ccccc3)n(-c3ccccc3)n2)cc1 (stereo not shown)", "IC50": "73.2 µM"}
{"Compound": "O=[N+]([O-])c1ccc(-c2cc(NC(c3ccc([N+](=O)[O-])cc3)P(=O)(Oc3ccccc3)Oc3ccccc3)n(-c3ccccc3)n2)cc1 (stereo not shown)", "IC50": "15.1 µM"}
